Where do these numbers come from? They come from patent US11351178B2.

So I've got IC50 readings for HDAC2 (Homo sapiens, UniProt Q92769), take a look.
Only the number, expressed in µM, is required.

Below: 4 compounds and their reported IC50.
stdin: What value of IC50 on HDAC2 (Homo sapiens, UniProt Q92769) does CCN(CC)S(=O)(=O)c1cccc(-c2nnc(Sc3ccc(C(=O)NO)cc3)n2N)c1 [comp. 61] have?
stdout: 6.91

stdin: Form entry - test system: HDAC2 (Homo sapiens, UniProt Q92769); read-out: IC50; compound: CN(C)c1cccc(-c2nnc(Sc3ccc(C(=O)NO)cc3)n2C)c1 [comp. 77]
Sequence (Q92769 whole entry): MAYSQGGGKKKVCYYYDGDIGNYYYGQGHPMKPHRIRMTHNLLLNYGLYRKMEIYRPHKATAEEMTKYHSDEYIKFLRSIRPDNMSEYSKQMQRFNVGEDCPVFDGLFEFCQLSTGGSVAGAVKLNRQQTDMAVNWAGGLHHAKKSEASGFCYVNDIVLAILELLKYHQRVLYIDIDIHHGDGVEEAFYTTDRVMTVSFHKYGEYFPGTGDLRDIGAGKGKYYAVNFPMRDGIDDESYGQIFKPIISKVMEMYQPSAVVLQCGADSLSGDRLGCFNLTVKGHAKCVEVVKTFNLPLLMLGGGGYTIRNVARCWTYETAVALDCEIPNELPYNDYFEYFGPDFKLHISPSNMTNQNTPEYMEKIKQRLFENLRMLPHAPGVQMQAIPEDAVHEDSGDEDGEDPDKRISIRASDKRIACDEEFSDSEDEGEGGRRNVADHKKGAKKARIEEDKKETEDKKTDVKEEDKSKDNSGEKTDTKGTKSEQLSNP
stdout: 5.23

stdin: Fill in the recorded IC50 for this compound, with HDAC2 (Homo sapiens, UniProt Q92769) as test system: O=C(NO)c1cc(F)c(Cn2nnc(-c3cccs3)n2)c(F)c1 [comp. 65]
stdout: 17.7

stdin: Requested read-out IC50, target or system HDAC2 (Homo sapiens, UniProt Q92769), entry O=C(NO)c1ccc(Cc2nnc(-c3ccc(F)cc3F)o2)cc1 [comp. 58]
stdout: 1.75

Others:
stdin: Form: Entry = O=C(NO)c1cc(F)c(Cn2nnc(-c3ccco3)n2)c(F)c1 [comp. 19] | System = HDAC2 (Homo sapiens, UniProt Q92769) | IC50 = ____
stdout: 9.48
